- assay_remarks: Primary fluorescence-based thiol-reactive (MSTI) qHTS assay for identification of artifact compounds. (AID 1845221);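 note: thiol-reactive compounds lower the probe fluorescence signal; nearly all actives have a fitted effect of over 65% in size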
- details: MSTI thiol-reactivity probe, 1 h; series mostly up to 53.8 µM
Results filed as inconclusive are left out. Calls of active or inactive are those of the source. Calls come from the whole dose curve; as a rule, active = well fitted inhibition curve with a large enough effect; inconclusive = small, poorly fitted or top-dose-only effect; inactive = no such curve, though single readings can be large or run the other way.
parameter_measured: activity change, negative = thiol reactive

- compound: "CC(=O)O[C@H]1CC(C)(C)CC2[C@@]13[C@H](O)C[C@]1(C)[C@@]2(CCC2[C@@]4(C)CC[C@H](O[C@@H]5OC[C@H](O[C@@H]6O[C@H](CO)[C@@H](O)[C@H](O)[C@H]6O[C@@H]6OC[C@@H](O)[C@H](O)[C@H]6O)[C@H](O)[C@H]5O[C@@H]5O[C@H](CO)[C@@H](O)[C@H](O)[C@H]5O)C(C)(C)C4CC[C@]21C)O[C@@H]3O (some centres not stated)"
  assay_value: "93.4% [at 11.5 µM] (inactive)"
- compound: "COC1CC(O[C@H]2CC[C@@]3(C)C(=CC[C@]4(O)C3[C@H](OC(C)=O)[C@@H](OC(=O)c3ccccc3)[C@]3(C)[C@@H](C(C)=O)CC[C@@]34O)C2)OC(C)C1OC1CC(OC)C(OC2CC(OC)C(OC3OC(C)C(OC4OC(CO)C(O)C(O)C4O)C(OC)C3O)C(C)O2)C(C)O1 (some centres not stated)"
  assay_value: "29.9% [at 11.5 µM] (inactive)"
- compound: "C[C@@H]1O[C@@H](O[C@@H]2CO[C@@H](O[C@H]3CC[C@@]4(C)C(CC[C@]5(C)C4CC=C4[C@@H]6CC(C)(C)CC[C@]6(C(=O)O[C@@H]6O[C@H](CO)[C@@H](O)[C@H](O)[C@H]6O)CC[C@]45C)[C@]3(C)CO)[C@H](O)[C@H]2O[C@@H]2O[C@H](CO)[C@@H](O)[C@H](O)[C@H]2O)[C@H](O)[C@H](O)[C@H]1O (some centres not stated)"
  assay_value: "216% [at 11.5 µM] (inactive)"
- compound: "CC1(C)CC[C@]2(C(=O)O[C@@H]3O[C@H](CO[C@@H]4O[C@H](CO)[C@@H](O)[C@H](O)[C@H]4O[C@@H]4O[C@H](CO)[C@H](O)[C@H](O)[C@H]4O)[C@@H](O)[C@H](O[C@@H]4O[C@H](CO)[C@@H](O)[C@H](O)[C@H]4O)[C@H]3O)CC[C@]3(C)C(=CCC4[C@@]5(C)CC[C@H](O[C@@H]6OC[C@@H](O)[C@H](O)[C@H]6O)[C@@](C)(C(=O)O)C5CC[C@]43C)[C@@H]2C1 (some centres not stated)"
  assay_value: "79.6% [at 11.5 µM] (inactive)"
- compound: "CC(C)=CCC/C(C)=C/CC/C(C)=C/COC1OC(COC2OCC(OC3OCC(O)C(O)C3O)C(O)C2O)C(O)C(OC2OC(C)C(OC3OC(C)C(OC4OCC(OC5OC(C)C(O)C(O)C5O)C(O)C4O)C(O)C3O)C(O)C2O)C1O (configuration not stated)"
  assay_value: "139% [at 11.5 µM] (inactive)"
- compound: "CC(=O)C1=C(C)N(c2cccc(C(F)(F)F)c2)C(=O)N[C@H]1c1ccc(C#N)nc1"
  assay_value: "33.4% [at 11.5 µM] (inactive)"
- compound: "CC(C)=CCC[C@](C)(O[C@@H]1O[C@H](CO[C@@H]2O[C@H](CO)[C@@H](O)[C@H](O)[C@H]2O)[C@@H](O)[C@H](O)[C@H]1O)C1CC[C@]2(C)[C@@H]1[C@H](O)CC1[C@@]3(C)CC[C@H](O[C@@H]4O[C@H](CO)[C@@H](O)[C@H](O)[C@H]4O[C@@H]4O[C@H](CO)[C@@H](O)[C@H](O)[C@H]4O)C(C)(C)[C@@H]3CC[C@]12C (some centres not stated)"
  assay_value: "44.5% [at 11.5 µM] (inactive)"
